# Tested target: T1, macaca GM-CSF (rhesus, Macaca mulatta; cynomolgus, Macaca fascicularis, identical sequence) (Macaca mulatta / Macaca fascicularis, UniProt Q0MUT8 18-144 (Chlorocebus aethiops entry), limits assumed)
# T1 chain: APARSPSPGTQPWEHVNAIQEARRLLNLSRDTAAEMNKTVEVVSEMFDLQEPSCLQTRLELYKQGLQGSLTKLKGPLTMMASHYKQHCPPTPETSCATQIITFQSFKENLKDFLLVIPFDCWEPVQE
# Assay method text: cell-based or functional assay
Quantity kind: Fold macaca/human I117 (TF-1 proliferation IC50) (fold)
Please state the figure in fold; there is no need to write the unit.

Incoming: Report Fold macaca/human I117 (TF-1 proliferation IC50) for 4K21 hVH S55K-T62S hVL N28I-H34S-N53R-H93F (MSB0010628) (antibody, V domains shown, Tested as IgG ('optimized 4K21 IgGs'); the humanized parent is hIgG1 kappa; also called optimized 4K21 antibody; 4K21 (4K21 VH S55K-T62S VL N28I-H34S-N53R-H93F)) VH: EVQLVESGGGLVQPGGSLRLSCAASGFAFSAYDMSWVRQAPGKRLELVAYISSGGKSFYYPDSVKGRFTISRDNAKNSLYLQMNSLRAEDTAVYYCTRHLGFDYWGQGTLVTVSS VL: DIVMTQSPLSLPVTPGEPASISCRSSQSLVNSIGNTYLSWYLQKPGQSPQLLIYKVSRRFSGVPDRFSGSGSGTDFTLKISRVEAEDVGVYYCSQSTFVPPTFGQGTKVEIK
Outgoing: 3.9
